- Tested on: normal primary NK cells, pool 2 (3 donors) (IL-2 2.5 ng/mL);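 also: normalised to DMSO-only wells as negative and benzethonium chloride as positive control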
- assay overview: percent inhibition of viability; higher = more inhibition
- assay conditions: 72 h; 1000 nM

compound	percent inhibition of viability / %
Cc1ccc(-n2nc(C(C)(C)C)cc2NC(=O)Nc2ccc(OCCN3CCOCC3)c3ccccc23)cc1 [Doramapimod] (max concentration tested 10000 nM)	-0.89
O=C(O)c1ccc(-c2c[nH]c3ncc(-c4ccccc4)cc23)cc1C1CCCC1 (max concentration tested 10000 nM)	6.53
Cc1cc2c(F)c(Oc3ncnn4cc(OC[C@@H](C)O)c(C)c34)ccc2[nH]1 [Brivanib] (max concentration tested 1000 nM)	-8.25
N#CC1(c2ccc(NC(=O)c3cccnc3NCc3ccncc3)cc2)CCCC1 [Apatinib] (max concentration tested 10000 nM)	-1.25
Nc1nc(Cl)nc2c1ncn2[C@@H]1O[C@H](CO)[C@@H](O)[C@@H]1F [Clofarabine] (max concentration tested 10000 nM)	95
CCn1c(C(=O)N(C2CC2)C2CC2)cc2c3c(ncn3C)c(Nc3cc(C)n(C)n3)nc21 (max concentration tested 10000 nM)	3.6
Clc1ccc(Nc2nnc(Cc3ccncc3)c3ccccc23)cc1 [Vatalanib] (max concentration tested 10000 nM)	-5.37
CCN(CC)CCNC(=O)c1c(C)[nH]c(/C=C2\C(=O)Nc3ccc(F)cc32)c1C [Sunitinib] (max concentration tested 1000 nM)	11.7
Cc1c(N)nc([C@H](CC(N)=O)NC[C@H](N)C(N)=O)nc1C(=O)N[C@H](C(=O)N[C@H](C)[C@@H](O)[C@H](C)C(=O)N[C@H](C(=O)NCCc1nc(-c2nc(C(=O)NCCC[S+](C)C)cs2)cs1)[C@@H](C)O)[C@@H](OC1OC(CO)C(O)C(O)C1OC1OC(CO)C(O)C(OC(N)=O)C1O)c1cnc[nH]1 (stereo partly specified) [Bleomycin] (max concentration tested 10000 nM)	19.4
CC1(COc2ccc3c(c2)ncn3-c2ccc3cccc(N4CCC(N)CC4)c3n2)COC1 [Crenolanib] (max concentration tested 10000 nM)	32
Nc1ccccc1NC(=O)c1ccc(CNc2nccc(-c3cccnc3)n2)cc1 [Mocetinostat] (max concentration tested 10000 nM)	66.8
CCN(CC)CCOc1ccc(C(=C(Cl)c2ccccc2)c2ccccc2)cc1 [Clomifene] (max concentration tested 10000 nM)	14.9
O=C(CCCCCCNC(=O)c1cnc(N(c2ccccc2)c2ccccc2)nc1)NO [Rocilinostat] (max concentration tested 10000 nM)	23.4
CNC(=O)c1ccccc1Sc1ccc2c(/C=C/c3ccccn3)n[nH]c2c1 [Axitinib] (max concentration tested 10000 nM)	-6.27
CC(C)Oc1cc(Nc2nc(N[C@@H](C)c3ccc(F)cn3)ncc2Cl)n[nH]1 [AZ-23] (max concentration tested 1000 nM)	20
Cc1cccc(-c2nn3c(c2-c2ccnc4ccc(C(N)=O)cc24)CCC3)n1 [Galunisertib] (max concentration tested 1000 nM)	-20.2
COc1nc(N)nc2c1ncn2[C@@H]1O[C@H](CO)[C@@H](O)[C@@H]1O [Nelarabine] (max concentration tested 10000 nM)	59.8
Cn1cc(C2=C(c3cn(C4CCN(Cc5ccccn5)CC4)c4ccccc34)C(=O)NC2=O)c2ccccc21 [Enzastaurin] (max concentration tested 10000 nM)	-7.31
NC1(c2ccc(-c3nc4ccn5c(=O)[nH]nc5c4cc3-c3ccccc3)cc2)CCC1 [MK-2206] (max concentration tested 1000 nM)	34.8
CCC(C)(C)C(=O)O[C@H]1C[C@@H](C)C=C2C=C[C@H](C)[C@H](CC[C@@H]3C[C@@H](O)CC(=O)O3)[C@H]21 [Simvastatin] (max concentration tested 10000 nM)	14.3
COc1cc([C@@H]2c3cc4c(cc3[C@@H](O[C@@H]3O[C@@H]5CO[C@@H](C)O[C@H]5[C@H](O)[C@H]3O)[C@H]3COC(=O)[C@H]23)OCO4)cc(OC)c1O [Etoposide] (max concentration tested 10000 nM)	8.73
